- ASSAYED TARGET: ALK5 (Homo sapiens (Human), UniProt P36897)
- Sequence (P36897 34-503, species assumed): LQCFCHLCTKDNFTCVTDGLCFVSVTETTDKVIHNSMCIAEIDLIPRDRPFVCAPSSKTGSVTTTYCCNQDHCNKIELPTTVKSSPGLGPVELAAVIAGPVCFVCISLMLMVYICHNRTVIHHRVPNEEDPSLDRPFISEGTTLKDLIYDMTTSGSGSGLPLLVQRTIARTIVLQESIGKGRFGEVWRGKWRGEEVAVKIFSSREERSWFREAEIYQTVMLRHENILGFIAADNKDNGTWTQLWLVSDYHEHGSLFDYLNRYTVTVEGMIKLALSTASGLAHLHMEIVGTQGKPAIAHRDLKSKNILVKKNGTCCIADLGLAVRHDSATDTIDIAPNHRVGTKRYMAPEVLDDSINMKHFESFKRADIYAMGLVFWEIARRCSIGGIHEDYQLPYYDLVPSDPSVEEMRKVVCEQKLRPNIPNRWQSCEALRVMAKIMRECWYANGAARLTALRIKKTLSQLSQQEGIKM
pIC50: −log10 of the molar value.
Mark no (0) for pIC50 values under 7, and yes (1) for everything at or above.

Check out these entries, answers already filled in.
ITEM SMILES	ASSAYED TARGET	GROUP LABEL
Cc1cccc(-c2ccccc2-c2ccc3ncc(C(=O)NC4CC4)n3c2)n1	ALK5 (Homo sapiens (Human), UniProt P36897)	yes (1)
CNC(=O)c1cnc2ccc(-c3ccccc3-c3cccc(C)n3)cn12	ALK5 (Homo sapiens (Human), UniProt P36897)	yes (1)
Cc1nc(-c2ccccc2-c2ccc3ncc(C(N)=O)n3c2)ccc1Cl	ALK5 (Homo sapiens (Human), UniProt P36897)	no (0)

[Q] Dear colleague, could you confirm whether `Cc1cccc(-c2ccccc2-c2ccc3ncc(NC=O)n3c2)n1` has pIC50 at or above 7?
[A] no (0)

[Q] Dear colleague, could you confirm whether `Cc1cccc(-c2ccccc2-c2ccc3ncc(C#N)n3c2)n1` has pIC50 at or above 7?
[A] no (0)

---

- ASSAYED TARGET: ALK5 (Homo sapiens (Human))
Please provide measured pIC50 for the entries that follow.
Answers are plain numbers, as −log10 of the molar value.

ITEM SMILES	EXPERIMENTAL VALUE
Cc1cccc(-c2ccc(C#N)cc2-c2ccc3ncc(C(N)=O)n3c2)n1	7.14
Cc1cccc(-c2ccc(Oc3ccccc3F)cc2-c2ccc3ncc(C(N)=O)n3c2)n1	7.41

Can you give me pIC50 for all of these, one by one?
1. Cc1cccc(-c2ccccc2-c2ccc3nc[nH]c(=O)c3c2)n1
2. Cc1cccc(-c2ccc(F)cc2-c2ccc3ncc(C(N)=O)n3c2)n1
3. Cc1cccc(-c2ccccc2-c2ccc3ncc(C(N)=O)n3c2)n1
4. Cc1cccc(-c2ccccc2-c2ccc3ncc(C(=O)N(C)C)n3c2)n1
5. Cc1cccc(-c2ccncc2-c2ccc3ncc(C(N)=O)n3c2)n1
6. Cc1cccc(-c2ccccc2-c2ccc3ncc(-c4nnn[nH]4)n3c2)n1
7. Cc1cccc(-c2ccccc2-c2ccc3[nH]ncc3c2)n1
8. Cc1cccc(-c2ccccc2-c2ccc3nccn3c2)n1

[A]
6.99
7.80
7.78
6.61
6.96
7.14
5.89
6.84

---

As a worked illustration, we turn to log10(IC50) data collected for ALK5 (Homo sapiens (Human)).
The common logarithm of IC50 in nM is what is listed.

Record excerpt, results attached:
ITEM SMILES	log10(IC50)
Cc1ccc(F)c(-c2ccccc2-c2ccc3ncc(C(N)=O)n3c2)n1	1.08
Cc1cccc(-c2ccccc2-c2ccc3ncc(C(N)=O)nc3c2)n1	2.62
Cc1cccc(-c2ccccc2-c2ccc3ncc(C(N)=O)n3n2)n1	1.99

Can you give me log10(IC50) for all of these, one by one?
1. Cc1cccc(-c2ccccc2-c2ccc3ncc(C(=O)O)n3c2)n1
2. COc1cccc(-c2ccccc2-c2ccc3ncc(C(N)=O)n3c2)n1
3. Cc1nccc(-c2ccccc2-c2ccc3ncc(C(N)=O)n3c2)n1

[A]
[2.28, 1.65, 2.37]
